System: Survivin
Test: Effect on survivin expression (Table 9)
Assay type: cell-based
Conditions: 5 uM
Rule: inhibition at 5 µM under 10% gives rule not met, otherwise rule met.

# input # bool: inhibition at 5 µM of Cc1ccc(N(C)C)c(CN2C[C@@H]3N(C(=O)CN(C)N3C(=O)NCc3ccccc3)[C@@H](Cc3ccc(O)cc3)C2=O)c1 >= 10%
# output rule not met

# input Please tell me: is the compound Cc1cc(C)c(N(C)C)c(CN2C[C@@H]3N(C(=O)CN(C)N3C(=O)NCc3ccccc3)[C@@H](Cc3ccc(O)cc3)C2=O)c1 at or over 10% in terms of inhibition at 5 µM?
# output rule not met

# input # bool: inhibition at 5 µM of CN(C)c1cc(Cl)ccc1CN1C[C@@H]2N(C(=O)CN(C)N2C(=O)NCc2ccccc2)[C@@H](Cc2ccc(O)cc2)C1=O >= 10%
# output rule not met

# input Has CN(C)c1cccc(F)c1CN1C[C@@H]2N(C(=O)CN(C)N2C(=O)NCc2ccccc2)[C@@H](Cc2ccc(O)cc2)C1=O a recorded inhibition at 5 µM greater than or equal to 10%?
# output rule not met

# input Answer whether inhibition at 5 µM of CN(C)c1c(Cl)cccc1CN1C[C@@H]2N(C(=O)CN(C)N2C(=O)NCc2ccccc2)[C@@H](Cc2ccc(O)cc2)C1=O is greater than or equal to 10%.
# output rule not met

# input Does CC(C)N(C)c1ccc(Cl)c(CN2C[C@@H]3N(C(=O)CN(C)N3C(=O)NCc3ccccc3)[C@@H](Cc3ccc(O)cc3)C2=O)c1 have a reported inhibition at 5 µM of at least 10%?
# output rule met

# input Check this compound for inhibition at 5 µM at or above 10%: Cc1ccc(N(C)C(C)C)c(CN2C[C@@H]3N(C(=O)CN(C)N3C(=O)NCc3ccccc3)[C@@H](Cc3ccc(O)cc3)C2=O)c1
# output rule met

====

Tested on: Survivin
Assay: Effect on survivin expression (Table 9)
Assay type: cell-based
Conditions: 25 uM
I'd be grateful if you could share measured inhibition at 25 µM for these entries.
Answers are plain numbers, in %.

Here's what some known entries look like.
{"lineNotation": "CN(C)c1cccc(F)c1CN1C[C@@H]2N(C(=O)CN(C)N2C(=O)NCc2ccccc2)[C@@H](Cc2ccc(O)cc2)C1=O", "numericValue": 6}
{"lineNotation": "Cc1ccc(N(C)C)c(CN2C[C@@H]3N(C(=O)CN(C)N3C(=O)NCc3ccccc3)[C@@H](Cc3ccc(O)cc3)C2=O)c1", "numericValue": 94}
{"lineNotation": "Cc1cc(C)c(N(C)C)c(CN2C[C@@H]3N(C(=O)CN(C)N3C(=O)NCc3ccccc3)[C@@H](Cc3ccc(O)cc3)C2=O)c1", "numericValue": 84}
{"lineNotation": "CC(C)N(C)c1ccc(Cl)c(CN2C[C@@H]3N(C(=O)CN(C)N3C(=O)NCc3ccccc3)[C@@H](Cc3ccc(O)cc3)C2=O)c1", "numericValue": 44}

Pending compound:
# input Quick check: inhibition at 25 µM of Cc1c(CN2C[C@@H]3N(C(=O)CN(C)N3C(=O)NCc3ccccc3)[C@@H](Cc3ccc(O)cc3)C2=O)cccc1N(C)C ?
# output 96

====

Test system: Survivin
Test: Effect on survivin expression (Table 9)
Type: cell-based
Details: 5 uM
Lab note: anything with inhibition at 5 µM at or over 9% counts as Yes; the rest go in No.

Answered cases to consult:
{"lineNotation": "Cc1cccc(N(C)C)c1CN1C[C@@H]2N(C(=O)CN(C)N2C(=O)NCc2ccccc2)[C@@H](Cc2ccc(O)cc2)C1=O", "labelClass": "No"}
{"lineNotation": "CCN(C)c1cccc(CN2C[C@@H]3N(C(=O)CN(C)N3C(=O)NCc3ccccc3)[C@@H](Cc3ccc(O)cc3)C2=O)c1", "labelClass": "Yes"}
{"lineNotation": "CN(C)c1ccccc1CN1C[C@@H]2N(C(=O)CN(C)N2C(=O)NCc2ccccc2)[C@@H](Cc2ccc(O)cc2)C1=O", "labelClass": "Yes"}
{"lineNotation": "CN1CC(=O)N2[C@@H](CN(Cc3cccc4cn[nH]c34)C(=O)[C@@H]2Cc2ccc(O)cc2)N1C(=O)NCc1ccccc1", "labelClass": "Yes"}
{"lineNotation": "CC(C)N(C)c1cccc(CN2C[C@@H]3N(C(=O)CN(C)N3C(=O)NCc3ccccc3)[C@@H](Cc3ccc(O)cc3)C2=O)c1", "labelClass": "No"}

# input Determine whether this compound has inhibition at 5 µM no lower than 9%: CN1CC(=O)N2[C@@H](Cc3ccc(O)cc3)C(=O)N(Cc3c(Cl)cc(Cl)c4cccnc34)C[C@@]2(C)N1C(=O)NCc1ccccc1
# output No
